Taken from paper PMC6037691.

Assay: Total antioxidant capacity (TAOC), modified phosphomolybdenum method
Details: concentration providing 0.500 of absorbance at 695 nm; mean ± SD, n = 3
EC50 strictly less than 600 µM = class 1. Otherwise class 0.

Here are 3 molecules together with their reported answers.
MOLECULE	CLASS_NAME
O=[N+]([O-])c1ccccc1C=NNc1nc(-c2ccccc2)c[se]1 [Compound 2]	class 1
COc1ccc(-c2c[se]c(NN=Cc3ccccc3[N+](=O)[O-])n2)cc1 [Compound 2-OMe]	class 1
O=C1O[C@H]([C@@H](O)CO)C(O)=C1O [vitamin C, Ascorbic acid, reference compound]	class 1

Dear reviewer, please state whether COc1ccc(-c2c[se]c(NN=Cc3ccc([N+](=O)[O-])cc3)n2)cc1 [Compound 4-OMe] has EC50 strictly beneath 600 µM.
class 0

For this molecule, is EC50 lower than 600 µM? O=[N+]([O-])c1cccc(C=NNc2nc(-c3ccccc3)c[se]2)c1 [Compound 3]
class 1

Decide: EC50 of Cc1ccc(-c2c[se]c(NN=Cc3cccc([N+](=O)[O-])c3)n2)cc1 [Compound 3-Me] strictly below 600 µM?
class 1

Hello, is EC50 of the following molecule strictly smaller than 600 µM? Cc1ccc(-c2c[se]c(NN=Cc3ccc([N+](=O)[O-])cc3)n2)cc1 [Compound 4-Me]
class 1

EC50 strictly < 600 µM for this molecule? C(=NNc1nc(-c2ccccc2)c[se]1)c1ccccc1 [Compound 1]
class 0

In the record for COc1ccc(-c2c[se]c(NN=Cc3cccc([N+](=O)[O-])c3)n2)cc1 [Compound 3-OMe] , is EC50 less than 600 µM?
class 0

Please check: EC50 for COc1ccc(-c2c[se]c(NN=Cc3ccccc3)n2)cc1 [Compound 1-OMe] , strictly under 600 µM or not?
class 1

Determine whether this molecule shows EC50 lower than 600 µM (ties excluded): O=[N+]([O-])c1ccc(C=NNc2nc(-c3ccccc3)c[se]2)cc1 [Compound 4]
class 1

Lab note: confirm whether the reported EC50 for this molecule is below 600 µM, equality not counting. molecule: Cc1ccc(-c2c[se]c(NN=Cc3ccccc3[N+](=O)[O-])n2)cc1 [Compound 2-Me]
class 1
